system_under_test: T1, human PACAP27 (human, C-terminal leucine is amidated; 125I-labelled in Example 10)
T1 peptide: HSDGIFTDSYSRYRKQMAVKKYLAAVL
assay_remarks: cell-based or functional assay
Quick reference: IC50, 0.1 nM PACAP27-induced PAC1-R mediated cAMP increase of the listed items.
observation_type: IC50, 0.1 nM PACAP27-induced PAC1-R mediated cAMP increase (nM)

INSERT INTO results (binder, experimental_result) VALUES
  ('anti-PACAP antibody Ab12 (antibody, human IgG1, kappa, N297A, V domains shown, full-length rabbit/human chimeric antibody) VH: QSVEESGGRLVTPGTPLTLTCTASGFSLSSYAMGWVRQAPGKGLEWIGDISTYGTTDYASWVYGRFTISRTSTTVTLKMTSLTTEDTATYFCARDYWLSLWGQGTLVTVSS VL: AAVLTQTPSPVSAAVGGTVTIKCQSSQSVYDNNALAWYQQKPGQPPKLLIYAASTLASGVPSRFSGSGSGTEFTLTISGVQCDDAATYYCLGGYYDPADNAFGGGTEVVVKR', 0.0604),
  ('anti-PACAP antibody Ab11 (antibody, human IgG1, kappa, N297A, V domains shown, full-length rabbit/human chimeric antibody) VH: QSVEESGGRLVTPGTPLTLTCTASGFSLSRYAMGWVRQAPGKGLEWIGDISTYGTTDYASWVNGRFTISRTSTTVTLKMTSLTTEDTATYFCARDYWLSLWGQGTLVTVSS VL: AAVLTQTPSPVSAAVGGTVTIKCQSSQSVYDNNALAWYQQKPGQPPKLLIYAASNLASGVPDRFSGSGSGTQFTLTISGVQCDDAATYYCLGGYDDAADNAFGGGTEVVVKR', 0.109),
  ('anti-PACAP antibody Ab4 (antibody, human IgG1, kappa, N297A, V domains shown, full-length rabbit/human chimeric antibody) VH: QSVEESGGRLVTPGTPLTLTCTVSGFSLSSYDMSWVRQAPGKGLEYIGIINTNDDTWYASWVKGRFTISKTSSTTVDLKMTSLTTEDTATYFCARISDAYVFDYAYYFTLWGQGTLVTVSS VL: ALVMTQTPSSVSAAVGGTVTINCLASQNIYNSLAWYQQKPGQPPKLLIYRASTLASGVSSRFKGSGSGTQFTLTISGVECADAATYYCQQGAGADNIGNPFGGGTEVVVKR', 0.0769),
  ('anti-PACAP antibody Ab1.H (antibody, human IgG1, kappa, N297A, V domains shown, humanized form of Ab1, full length) VH: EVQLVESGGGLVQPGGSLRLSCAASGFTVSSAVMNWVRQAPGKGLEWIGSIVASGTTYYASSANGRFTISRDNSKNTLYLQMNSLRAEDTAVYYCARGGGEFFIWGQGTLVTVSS VL: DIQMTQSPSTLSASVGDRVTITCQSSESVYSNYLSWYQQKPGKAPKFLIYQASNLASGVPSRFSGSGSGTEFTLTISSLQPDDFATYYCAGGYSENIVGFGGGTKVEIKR', 0.0577),
  ('anti-PACAP antibody Ab2 (antibody, human IgG1, kappa, N297A, V domains shown, full-length rabbit/human chimeric antibody) VH: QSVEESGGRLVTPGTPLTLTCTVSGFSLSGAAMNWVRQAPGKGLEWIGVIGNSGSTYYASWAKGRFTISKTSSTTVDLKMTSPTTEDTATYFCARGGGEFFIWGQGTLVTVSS VL: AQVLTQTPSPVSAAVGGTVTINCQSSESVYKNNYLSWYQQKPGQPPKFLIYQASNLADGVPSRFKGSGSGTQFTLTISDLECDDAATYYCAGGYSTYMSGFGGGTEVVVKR', 0.063);
